Biological target: T1, human PD-1 expressed on cells (human, UniProt Q15116 25-288)
T1 construct: whole, on cells; One entry for cell-surface PD-1; also called CHO-PD-1 cells; Jurkat PD-1 cells
T1 sequence (Q15116 25-288): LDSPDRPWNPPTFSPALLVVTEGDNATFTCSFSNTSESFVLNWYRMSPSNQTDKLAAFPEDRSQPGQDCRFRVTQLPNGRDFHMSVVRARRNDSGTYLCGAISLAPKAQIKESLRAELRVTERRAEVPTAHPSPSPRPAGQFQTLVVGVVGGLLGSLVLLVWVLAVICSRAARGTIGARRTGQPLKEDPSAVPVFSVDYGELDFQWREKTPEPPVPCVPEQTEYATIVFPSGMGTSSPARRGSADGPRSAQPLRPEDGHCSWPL
Assay: flow cytometry on CHO-PD-1 cells
measurement-kind: EC50 (nM)

- GA2 (IgG) (antibody, V domains shown, Detected with anti-human IgG (gamma chain specific); also called PD1 GA2) VH: QVQLVQSGSELKKPGASVKISCKASGYIFSDNGVNWVRQAPGQGLEWMGWINTKIGNPTYAQGFTGRFVFSLDTSVSTTYLQISSLQAGDTAVYYCAREHDYYYGMDVWGQGTTVTVSS VL: QPVLTQPPSASGTPGQRVTISCSGSSSNIGTNTVNWYQQVPGTAPKLLIHGNDQRPSGVPDRFSGSKSDTSASLAITGLQSDDDADYYCSAWDDSLNADVFGGGTKLTVL: 0.202
- RG2H10 (IgG) (antibody, V domains shown, Detected with anti-human IgG (gamma chain specific); also called PD1 RG2H10) VH: QVQLQQSGPGLVRPSQTLSLSCDISGDSVSSNSATWNWIRQSPSRGLEWLGRTFYRSKWYHDYALSVKSRITINPDTSKNQFSLQLNSVSPGDTAVYFCVREDIDGRLDYWGQGTLVTVSS VL: QPVLTQPASVSGSPGQSITISCTGTSSDVGGYNYVSWYQQHPGKAPKLMIYDVSNRPSGVSNRFSGSKSGNTASLAITGLQSDDDADYYCSAWDDSLNADVFGGGTKLTVL: 2.8
